system: Corynebacterium jeikeium; test: Testing swatches for binding and antimicrobial activity; assay type: cell-based; conditions: peptide attached to swatches
MEASURED_PROPERTY: colonies counted (cells recovered from swatch), C. Jeikeium
Answers are plain numbers.

Below, 4 sequences whose answers are already recorded.
# input So what does the record say about colonies counted (cells recovered from swatch), C. Jeikeium for GGSGGNGVVLTL (MICROCOCCUS LUTEUS and CORYNEBACTERIUM JEIKIEUM) [Cj 1] ?
# output 175

# input Now the sequence GGSGGSWQHVFT (MICROCOCCUS LUTEUS and CORYNEBACTERIUM JEIKIEUM) [Cj 4]
# output 245

# input Now the sequence GGSGGGWWNSWGKCV (MICROCOCCUS LUTEUS and CORYNEBACTERIUM JEIKIEUM) [Cj 5]
# output 0

# input Now the sequence GGSGGIGGVSGGLTG (MICROCOCCUS LUTEUS and CORYNEBACTERIUM JEIKIEUM) [Cj 6]
# output 0

For every listed record, write down its colonies counted (cells recovered from swatch), C. Jeikeium.
1. GGSGGTWTKKLK (MICROCOCCUS LUTEUS and CORYNEBACTERIUM JEIKIEUM) [Cj2]
2. GGSGGNRWWQGVVP (MICROCOCCUS LUTEUS and CORYNEBACTERIUM JEIKIEUM) [Cj3]

# output
1. 0
2. 300

src = patent US11457625B1
